Documented self-cleavage across a set of variants
B1: CPEB3 Ribozyme (parent)
chain: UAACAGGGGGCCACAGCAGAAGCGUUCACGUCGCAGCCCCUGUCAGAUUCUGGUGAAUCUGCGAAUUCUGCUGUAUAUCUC

- Variants of: B1
- test summary: self-cleavage, relative activity (ratio to wild type); higher = more cleavage; in vitro, sequencing

{"mutation key": "U49C U54G", "self-cleavage": 0.25}
{"mutation key": "U31G C39U", "self-cleavage": 0.34}
{"mutation key": "G55C", "self-cleavage": 0.94}
{"mutation key": "A28U U58G", "self-cleavage": 0.2}
{"mutation key": "A56U G70U", "self-cleavage": 0.21}
{"mutation key": "U25G", "self-cleavage": 0.31}
{"mutation key": "A18U U60C", "self-cleavage": 0.22}
{"mutation key": "U66C U69A", "self-cleavage": 0.3}
{"mutation key": "A13G U51G", "self-cleavage": 0.84}
{"mutation key": "U74C A77U", "self-cleavage": 1.26}
{"mutation key": "G30U U41C", "self-cleavage": 0.27}
{"mutation key": "G6C U51A", "self-cleavage": 0.38}
{"mutation key": "U43G U74G", "self-cleavage": 0.36}
{"mutation key": "C29U U69C", "self-cleavage": 0.16}
{"mutation key": "A18G A56G", "self-cleavage": 0.55}
{"mutation key": "C37U U69A", "self-cleavage": 0.2}
{"mutation key": "G10C U74A", "self-cleavage": 0.26}
{"mutation key": "A77G C81A", "self-cleavage": 1.2}
{"mutation key": "U26G U43C", "self-cleavage": 1.02}
{"mutation key": "A56G C68A", "self-cleavage": 0.32}
{"mutation key": "U41C G61A", "self-cleavage": 0.34}
{"mutation key": "U43A C59G", "self-cleavage": 0.41}
{"mutation key": "A64U G70A", "self-cleavage": 0.21}
{"mutation key": "C39A U60A", "self-cleavage": 0.18}
{"mutation key": "G42A U67A", "self-cleavage": 0.14}
{"mutation key": "A13U C79U", "self-cleavage": 1.31}
{"mutation key": "A5G C23U", "self-cleavage": 0.36}
{"mutation key": "A3G", "self-cleavage": 1.02}
{"mutation key": "G16C A47G", "self-cleavage": 0.25}
{"mutation key": "A21G C37A", "self-cleavage": 0.42}
{"mutation key": "A13U U78C", "self-cleavage": 1.23}
{"mutation key": "C34U U43C", "self-cleavage": 0.22}
